target: UniProtKB Q00534; assay: radiometric kinase assay; format: biochemical
Sequence (Q00534 whole entry): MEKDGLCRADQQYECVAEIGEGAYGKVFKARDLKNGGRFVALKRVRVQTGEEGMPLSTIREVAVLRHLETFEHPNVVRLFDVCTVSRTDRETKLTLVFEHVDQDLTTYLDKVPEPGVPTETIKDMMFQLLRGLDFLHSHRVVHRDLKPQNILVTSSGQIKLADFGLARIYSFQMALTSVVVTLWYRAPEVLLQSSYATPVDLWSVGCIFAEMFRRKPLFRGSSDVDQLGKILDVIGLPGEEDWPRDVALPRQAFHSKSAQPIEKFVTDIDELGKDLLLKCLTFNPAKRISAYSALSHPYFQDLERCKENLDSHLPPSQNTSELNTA
Endpoint name: IC50 (µM)
Your answer is read as µM, so omit the unit and give the number.

Q. Fill in: IC50 of O=C(O)CN(CC(=O)O)Cc1cc2c(cc1O)Oc1cc(O)c(CN(CC(=O)O)CC(=O)O)cc1C21OC(=O)c2ccccc21 is ___
A. 75
